Lab note: IC50 readings collected with Shp2 (Homo sapiens (Human), UniProt Q06124) for the following compounds.
Sequence (Q06124 whole entry): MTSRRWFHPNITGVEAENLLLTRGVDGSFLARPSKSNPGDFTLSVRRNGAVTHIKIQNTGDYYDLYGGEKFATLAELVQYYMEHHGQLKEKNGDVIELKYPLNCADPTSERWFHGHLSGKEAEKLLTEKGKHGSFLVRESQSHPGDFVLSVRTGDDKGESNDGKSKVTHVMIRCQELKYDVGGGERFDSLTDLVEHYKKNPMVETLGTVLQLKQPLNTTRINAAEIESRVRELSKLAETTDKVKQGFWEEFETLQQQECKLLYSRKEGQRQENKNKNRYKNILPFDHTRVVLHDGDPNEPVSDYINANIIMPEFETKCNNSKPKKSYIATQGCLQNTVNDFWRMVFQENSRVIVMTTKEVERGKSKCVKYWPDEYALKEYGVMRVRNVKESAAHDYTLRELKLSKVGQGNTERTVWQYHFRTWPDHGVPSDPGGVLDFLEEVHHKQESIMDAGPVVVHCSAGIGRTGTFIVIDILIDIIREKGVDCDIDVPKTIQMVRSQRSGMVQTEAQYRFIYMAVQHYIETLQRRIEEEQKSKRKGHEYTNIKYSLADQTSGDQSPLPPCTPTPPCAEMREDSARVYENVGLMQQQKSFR
Express your answer as a number followed by its unit.

>  <compound>
O=C(O)C(O)CC(=O)N1CCc2cc(S(=O)(=O)N3CCN(c4cccc(Cl)c4)CC3)ccc21 (stereo not shown) [JHE-02-001]

>  <IC50>
1.1 µM

$$$$
>  <compound>
CCOC(=O)C(C)NC(=O)N1CCc2cc(S(=O)(=O)N3CCN(c4cccc(Cl)c4)CC3)ccc21 (stereo not shown) [JHE-02-010B]

>  <IC50>
5.1 µM

$$$$
>  <compound>
O=C(O)CCC(=O)N1CCc2cc(S(=O)(=O)N3CCN(c4ccc(F)cc4)CC3)ccc21 [XW2-011B]

>  <IC50>
31.9 µM

$$$$
>  <compound>
CCOC(=O)CNC(=O)N1CCc2cc(S(=O)(=O)N3CCN(c4cccc(Cl)c4)CC3)ccc21 [JHE-01-134A]

>  <IC50>
60.3 µM

$$$$

Req: Tell me measured IC50 for O=C(O)c1cccc(NC(=O)N2CCc3cc(S(=O)(=O)N4CCN(c5cccc(Cl)c5)CC4)ccc32)c1 [JHE-02-020B] please.
Resp: 3 µM

Req: Return the recorded IC50 value; entry: Cc1ccc(Cl)cc1N1CCN(S(=O)(=O)c2ccc3c(c2)CCN3C(=O)CCC(=O)O)CC1 [XW2-125B]
Resp: 1.5 µM

Req: Respond only with IC50 recorded for O=C(O)c1ccccc1NC(=O)N1CCc2cc(S(=O)(=O)N3CCN(c4cccc(Cl)c4)CC3)ccc21 [JHE-02-020A]
Resp: 8.3 µM

---

In what follows, each item is paired with its IC50 for Shp2 (Homo sapiens (Human), UniProt Q06124).
Provide a numeric answer, followed by its unit.

Some compounds with known IC50 results, for comparison:
>  <compound>
CCC(C)C(NC(=O)N1CCc2cc(S(=O)(=O)N3CCN(c4cccc(Cl)c4)CC3)ccc21)C(=O)OC (stereo not shown) [JHE-02-029A]

>  <reported.value>
12.7 µM

$$$$
>  <compound>
O=C(C1CCCC1)N1CCc2cc(S(=O)(=O)N3CCN(c4cccc(Cl)c4)CC3)ccc21 [JF026]

>  <reported.value>
6.9 µM

$$$$
>  <compound>
CCOC(=O)C(NC(=O)N1CCc2cc(S(=O)(=O)N3CCN(c4cccc(Cl)c4)CC3)ccc21)C(C)C (stereo not shown) [JHE-02-010C]

>  <reported.value>
7.7 µM

$$$$

Consider the record given below.
Req: Write down measured IC50 (Shp2 (Homo sapiens (Human), UniProt Q06124)) for this compound. CC(C)c1ccc(NC(=O)N2CCc3cc(S(=O)(=O)N4CCN(c5cccc(Cl)c5)CC4)ccc32)cc1 [JHE-02-068B]
Resp: 4.1 µM

---

// reported IC50 for each item listed
- assayed.target: Shp2 (Homo sapiens (Human))
Your answer is read as µM, so omit the unit and give the number.

Req: Item O=C(Nc1ccc(Cl)cc1)N1CCc2cc(S(=O)(=O)N3CCN(c4cccc(Cl)c4)CC3)ccc21 [JHE-02-065A] : provide IC50
Resp: 19.1

Req: Assign IC50 to the following record: COc1ccc(N2CCN(S(=O)(=O)c3ccc4c(c3)CCN4C(=O)CCC(=O)O)CC2)cc1 [XW2-038E]
Resp: 9

Req: Return IC50 for the following compound: O=C(c1ccccc1)N1CCc2cc(S(=O)(=O)N3CCN(c4cccc(Cl)c4)CC3)ccc21
Resp: 8.4

---

Observed IC50 values for UniProtKB Q06124 are listed in what follows.
Dear colleague, please return just the value in µM, with no unit written.

>  <molecule>
O=C(Nc1ccc(F)cc1)N1CCc2cc(S(=O)(=O)N3CCN(c4cccc(Cl)c4)CC3)ccc21

>  <unit.string>
µM

>  <IC50>
12.6

$$$$

Req: Find IC50 for O=C(Nc1cccc(Cl)c1)N1CCc2cc(S(=O)(=O)N3CCN(c4cccc(Cl)c4)CC3)ccc21 [JHE-02-032A] on UniProtKB Q06124 and write it down.
Resp: 8.3

Req: Given COc1cccc(N2CCN(S(=O)(=O)c3ccc4c(c3)CCN4C(=O)CCC(=O)O)CC2)c1 [XW2-038F] , report its IC50 on UniProtKB Q06124.
Resp: 4.7

Req: State measured IC50 of the molecule CC1Cc2cc(S(=O)(=O)N3CCN(c4cccc(Cl)c4)CC3)ccc2N1C(=O)CCC(=O)O (stereo not drawn) with UniProtKB Q06124.
Resp: 2.5

Req: Please tell me the measured IC50 for O=C(O)CCC(=O)N1CCc2cc(S(=O)(=O)N3CCN(c4cc(C(F)(F)F)cc(C(F)(F)F)c4)CC3)ccc21 ; system: UniProtKB Q06124.
Resp: 9.1

Req: State IC50 (UniProtKB Q06124) of COc1cccc(NC(=O)N2CCc3cc(S(=O)(=O)N4CCN(c5cccc(Cl)c5)CC4)ccc32)c1 [JHE-02-032B] .
Resp: 9.9

Req: Recall the reported IC50 of COc1cccc(C(=O)N2CCc3cc(S(=O)(=O)N4CCN(c5cccc(Cl)c5)CC4)ccc32)c1 [JHE-02-035A] when tested on UniProtKB Q06124.
Resp: 8.1

---

- assayed.target: Shp2 (Homo sapiens (Human))
Each entry below carries its recorded pIC50.
Answer as the number alone; pIC50 is minus log10 of concentration in mol/L.

>  <molecule>
O=C(O)/C=C\C(=O)N1CCc2cc(S(=O)(=O)N3CCN(c4cccc(Cl)c4)CC3)ccc21 [JHE-01-129A]

>  <pIC50>
5.55

$$$$
>  <molecule>
O=C(Nc1ccc(Cl)c(Cl)c1)N1CCc2cc(S(=O)(=O)N3CCN(c4cccc(Cl)c4)CC3)ccc21 [JHE-02-068A]

>  <pIC50>
5.24

$$$$
>  <molecule>
CC(NC(=O)N1CCc2cc(S(=O)(=O)N3CCN(c4cccc(Cl)c4)CC3)ccc21)C(=O)O (centres unmarked) [JHE-02-017B]

>  <pIC50>
5.19

$$$$
>  <molecule>
COc1ccc(C(=O)N2CCc3cc(S(=O)(=O)N4CCN(c5cccc(Cl)c5)CC4)ccc32)cc1 [JF028]

>  <pIC50>
5.20

$$$$

Req: Given COC(=O)c1ccccc1NC(=O)N1CCc2cc(S(=O)(=O)N3CCN(c4cccc(Cl)c4)CC3)ccc21 [JHE-02-015A] , respond with its pIC50.
Resp: 4.84

Req: Using known records, supply pIC50 for COCC(=O)N1CCc2cc(S(=O)(=O)N3CCN(c4cccc(Cl)c4)CC3)ccc21 [JHE-01-169]
Resp: 5.02

Req: Respond only with pIC50 recorded for O=C(O)CCC(=O)N1CCc2cc(S(=O)(=O)N3CCN(c4ccc(Cl)c(Cl)c4)CC3)ccc21 [XW2-036]
Resp: 5.34

---

Record set of IC50 for target or system Shp2 (Homo sapiens (Human), UniProt Q06124).

Field: example entries. Status: answers known.
>  <molecule>
O=C(O)CCC(=O)N1CCc2cc(S(=O)(=O)N3CCN(c4cccc(F)c4)CC3)ccc21 [XW2-124A]

>  <reported.value>
13.2 µM

$$$$
>  <molecule>
O=C(O)CCNC(=O)N1CCc2cc(S(=O)(=O)N3CCN(c4cccc(Cl)c4)CC3)ccc21 [JHE-02-017A]

>  <reported.value>
4.8 µM

$$$$
>  <molecule>
O=C(c1cc(Cl)cc(Cl)c1)N1CCc2cc(S(=O)(=O)N3CCN(c4cccc(Cl)c4)CC3)ccc21

>  <reported.value>
8.2 µM

$$$$
>  <molecule>
Cc1ccc(N2CCN(S(=O)(=O)c3ccc4c(c3)CCN4C(=O)CCC(=O)O)CC2)cc1Cl

>  <reported.value>
16.6 µM

$$$$
>  <molecule>
CC(C)CC(=O)N1CCc2cc(S(=O)(=O)N3CCN(c4cccc(Cl)c4)CC3)ccc21 [JHE-02-033B]

>  <reported.value>
20.7 µM

$$$$

Now look at this entry.
Req: Name the value of IC50 reported for O=C(c1ccc(Cl)cc1)N1CCc2cc(S(=O)(=O)N3CCN(c4cccc(Cl)c4)CC3)ccc21 when tested on Shp2 (Homo sapiens (Human), UniProt Q06124).
Resp: 10.4 µM

---

Reported IC50 values, Shp2 (Homo sapiens (Human)).
Give your result in µM as a bare value.

Worked set:
>  <compound>
O=C(O)CCCC(=O)N1CCc2cc(S(=O)(=O)N3CCN(c4cccc(Cl)c4)CC3)ccc21 [JHE-01-129B]

>  <assayed.target>
Shp2 (Homo sapiens (Human))

>  <unit.string>
µM

>  <IC50>
2.8

$$$$
>  <compound>
CCOC(=O)CCNC(=O)N1CCc2cc(S(=O)(=O)N3CCN(c4cccc(Cl)c4)CC3)ccc21 [JHE-02-010A]

>  <assayed.target>
Shp2 (Homo sapiens (Human))

>  <unit.string>
µM

>  <IC50>
9.3

$$$$

Req: Report IC50 for O=C(O)C1CC=CCC1C(=O)N1CCc2cc(S(=O)(=O)N3CCN(c4cccc(Cl)c4)CC3)ccc21 (stereo not shown)
Resp: 20.3

Req: Retrieve IC50 measured for O=C(O)C(=O)N1CCc2cc(S(=O)(=O)N3CCN(c4cccc(Cl)c4)CC3)ccc21 [JHE-01-155B] and print it.
Resp: 4.8
